# experimental-system: T1, mutant human CD20 #6 (Y77F, N166D) (human, UniProt P11836 1-297)
# T1 construct: Stably expressed on MG87 cells
# T1 chain: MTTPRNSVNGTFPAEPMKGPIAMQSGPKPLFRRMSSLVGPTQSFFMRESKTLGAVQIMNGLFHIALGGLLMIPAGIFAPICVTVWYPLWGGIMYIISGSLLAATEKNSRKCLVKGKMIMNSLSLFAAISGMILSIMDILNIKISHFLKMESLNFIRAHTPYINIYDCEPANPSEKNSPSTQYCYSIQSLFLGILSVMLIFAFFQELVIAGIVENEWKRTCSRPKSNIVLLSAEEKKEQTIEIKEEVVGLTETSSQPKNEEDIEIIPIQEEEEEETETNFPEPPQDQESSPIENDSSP
# assay-method-text: FACS, mutant-hCD20 MG87 cells; 100%=best antibody
measured-endpoint: Percent of Binding to Mutant Human CD20 (%)
Answer in %, number only, no unit symbol.

>  <binder>
2B7-7 (antibody, V domains shown, Fully human IgG, constant region not specified; also called 2B7-7N) VH: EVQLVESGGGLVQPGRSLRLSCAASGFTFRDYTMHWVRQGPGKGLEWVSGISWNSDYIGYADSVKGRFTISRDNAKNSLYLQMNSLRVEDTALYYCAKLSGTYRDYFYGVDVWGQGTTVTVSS VL: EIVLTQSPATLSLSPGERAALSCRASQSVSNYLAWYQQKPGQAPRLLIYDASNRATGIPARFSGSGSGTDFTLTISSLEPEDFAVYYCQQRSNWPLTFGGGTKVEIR

>  <Percent of Binding to Mutant Human CD20 / %>
12

$$$$
>  <binder>
9H4-12 (antibody, V domains shown, Fully human IgG, constant region not specified; also called 9H4-12N) VH: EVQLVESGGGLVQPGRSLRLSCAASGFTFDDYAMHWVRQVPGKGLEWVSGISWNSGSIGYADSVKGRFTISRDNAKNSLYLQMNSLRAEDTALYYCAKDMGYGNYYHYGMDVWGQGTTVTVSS VL: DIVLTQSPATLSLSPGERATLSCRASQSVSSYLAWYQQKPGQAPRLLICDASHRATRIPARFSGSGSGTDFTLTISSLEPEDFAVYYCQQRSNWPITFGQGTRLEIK

>  <Percent of Binding to Mutant Human CD20 / %>
1

$$$$

Let us examine a further case.
Given 2F2 (antibody, V domains shown) VH: EVQLVESGGGLVQPGRSLRLSCAASGFTFNDYAMHWVRQAPGKGLEWVSTISWNSGSIGYADSVKGRFTISRDNAKKSLYLQMNSLRAEDTALYYCAKDIQYGNYYYGMDVWGQGTTVTVSS VL: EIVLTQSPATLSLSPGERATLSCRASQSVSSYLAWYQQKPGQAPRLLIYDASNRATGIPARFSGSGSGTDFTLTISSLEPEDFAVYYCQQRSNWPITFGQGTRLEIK , state its recorded Percent of Binding to Mutant Human CD20.
1
